All values here come from paper PMC8675330.

# assay_remarks: In vivo pharmacokinetics in plasma, brain and lung after IV, IN and IN + BorNLC co-administration
# Design: species or system CD-1 mice
# applied_conditions: CD-1, mouse; paroxetine; lung; IV free drug; 2.38 mg/kg
Counter-ions that a name gives are not always drawn.
property_label: Cmax (ng/g)
Reply with just the number (in ng/g).

Task: Give the measured Cmax of Fc1ccc([C@@H]2CCNC[C@H]2COc2ccc3c(c2)OCO3)cc1 [Paroxetine, Paroxetine hydrochloride] .
Result: 1010

----------
# assay_remarks: In vivo pharmacokinetics in plasma, brain and lung after IV, IN and IN + BorNLC co-administration
# Parameters: species or system CD-1 mice
# applied_conditions: CD-1, mouse; paroxetine; lung; IV free drug; 2.38 mg/kg
Structures can show the parent of a compound that is named as a salt.
property_label: Tmax (min)
Reply with just the number (in min).

Task: Give the measured Tmax of Fc1ccc([C@@H]2CCNC[C@H]2COc2ccc3c(c2)OCO3)cc1 [Paroxetine, Paroxetine hydrochloride] .
Result: 30

----------
# assay_remarks: In vivo pharmacokinetics in plasma, brain and lung after IV, IN and IN + BorNLC co-administration
# Set-up: species or system CD-1 mice
# applied_conditions: CD-1, mouse; paroxetine; plasma; IV free drug; 2.38 mg/kg
# Experimental: Healthy adult CD-1 mice (25–30 g) were acquired from Charles River Laboratories (L’Arbresle, France) and accommodated in a relative humidity of 55 ± 5%, a controlled temperature of 20 ± 2°C, and reversed 12 h light–dark cycles. […] Briefly, 300 μl of methanol were added to 200 μl of plasma, 200 μl of lung homogenate, or 400 μl of brain homogenate for protein precipitation. […] The detection wavelength to quantify the IS was set at 290 nm. […]
Where a name gives a salt, the structure may show the parent alone.
property_label: AUC(0-t) (ng·h/mL)
Reply with just the number (in ng·h/mL).

Task: Give the measured AUC(0-t) of Fc1ccc([C@@H]2CCNC[C@H]2COc2ccc3c(c2)OCO3)cc1 [Paroxetine, Paroxetine hydrochloride] .
Result: 1630

----------
# assay_remarks: In vivo pharmacokinetics in plasma, brain and lung after IV, IN and IN + BorNLC co-administration
# Set-up: species or system CD-1 mice
# applied_conditions: CD-1, mouse, lung/plasma, iv, 2.38 mg/kg, paroxetine; IV free drug; 2.38 mg/kg; read-out: AUCtlung/AUCtplasma
Counter-ions that a name gives are not always drawn.
property_label: Kp
Write the value as a bare number.

Task: Give the measured Kp of Fc1ccc([C@@H]2CCNC[C@H]2COc2ccc3c(c2)OCO3)cc1 [Paroxetine, Paroxetine hydrochloride] .
Result: 2.63

----------
# assay_remarks: In vivo pharmacokinetics in plasma, brain and lung after IV, IN and IN + BorNLC co-administration
# Design: species or system CD-1 mice
# applied_conditions: CD-1, mouse, inhaled or intranasal; paroxetine; brain; IN free drug; 2.38 mg/kg
Counter-ions that a name gives are not always drawn.
property_label: Tmax (h)
Reply with just the number (in h).

Task: Give the measured Tmax of Fc1ccc([C@@H]2CCNC[C@H]2COc2ccc3c(c2)OCO3)cc1 [Paroxetine, Paroxetine hydrochloride] .
Result: 2

----------
# assay_remarks: In vivo pharmacokinetics in plasma, brain and lung after IV, IN and IN + BorNLC co-administration
# Parameters: species or system CD-1 mice
# applied_conditions: CD-1, mouse, inhaled or intranasal; paroxetine; brain; IN free drug; 2.38 mg/kg
Structures can show the parent of a compound that is named as a salt.
property_label: Cmax
Write the numeric value and append its unit.

Task: Give the measured Cmax of Fc1ccc([C@@H]2CCNC[C@H]2COc2ccc3c(c2)OCO3)cc1 [Paroxetine, Paroxetine hydrochloride] .
Result: 283 ng/g

----------
# assay_remarks: In vivo pharmacokinetics in plasma, brain and lung after IV, IN and IN + BorNLC co-administration
# Set-up: species or system CD-1 mice
# applied_conditions: CD-1, mouse; paroxetine; plasma; IV free drug; 2.38 mg/kg
# Description: Healthy adult CD-1 mice (25–30 g) were acquired from Charles River Laboratories (L’Arbresle, France) and accommodated in a relative humidity of 55 ± 5%, a controlled temperature of 20 ± 2°C, and reversed 12 h light–dark cycles. […] Briefly, 300 μl of methanol were added to 200 μl of plasma, 200 μl of lung homogenate, or 400 μl of brain homogenate for protein precipitation. […] The detection wavelength to quantify the IS was set at 290 nm. […]
Structures can show the parent of a compound that is named as a salt.
property_label: Cmax (ng/mL)
Reply with just the number (in ng/mL).

Task: Give the measured Cmax of Fc1ccc([C@@H]2CCNC[C@H]2COc2ccc3c(c2)OCO3)cc1 [Paroxetine, Paroxetine hydrochloride] .
Result: 820

----------
# assay_remarks: In vivo pharmacokinetics in plasma, brain and lung after IV, IN and IN + BorNLC co-administration
# Design: species or system CD-1 mice
# applied_conditions: CD-1, mouse, lung/plasma, other: intranasal, 2.38 mg/kg, paroxetine; IN free drug; 2.38 mg/kg; read-out: AUCtlung/AUCtplasma
Structures can show the parent of a compound that is named as a salt.
property_label: Kp
Write the value as a bare number.

Task: Give the measured Kp of Fc1ccc([C@@H]2CCNC[C@H]2COc2ccc3c(c2)OCO3)cc1 [Paroxetine, Paroxetine hydrochloride] .
Result: 8.4

----------
# assay_remarks: In vivo pharmacokinetics in plasma, brain and lung after IV, IN and IN + BorNLC co-administration
# Set-up: species or system CD-1 mice
# applied_conditions: CD-1, mouse, lung, iv, 2.38 mg/kg
# Description: Healthy adult CD-1 mice (25–30 g) were acquired from Charles River Laboratories (L’Arbresle, France) and accommodated in a relative humidity of 55 ± 5%, a controlled temperature of 20 ± 2°C, and reversed 12 h light–dark cycles. […] Briefly, 300 μl of methanol were added to 200 μl of plasma, 200 μl of lung homogenate, or 400 μl of brain homogenate for protein precipitation. […] The detection wavelength to quantify the IS was set at 290 nm. […]
Where a name gives a salt, the structure may show the parent alone.
property_label: Tmax

Task: Give the measured Tmax of CN(C)CCC[C@@]1(c2ccc(F)cc2)OCc2cc(C#N)ccc21 [Escitalopram, escitalopram oxalate] .
Result: 1 h

----------
# assay_remarks: In vivo pharmacokinetics in plasma, brain and lung after IV, IN and IN + BorNLC co-administration
# Design: species or system CD-1 mice
# applied_conditions: CD-1, mouse, brain/plasma, other: intranasal (IN), 2.38 mg/kg, paroxetine; IN free drug; 2.38 mg/kg; read-out: AUCtbrain/AUCtplasma
Where a name gives a salt, the structure may show the parent alone.
property_label: Kp
Write the value as a bare number.

Task: Give the measured Kp of Fc1ccc([C@@H]2CCNC[C@H]2COc2ccc3c(c2)OCO3)cc1 [Paroxetine, Paroxetine hydrochloride] .
Result: 0.82
